assay: Pharmacokinetic studies in mice after IP dosing; format: in vivo; conditions: mouse; 70 mg/kg IP, male C57BL/6J mice, plasma; read-out: Vz/F

{"molecule": "O=S(=O)(c1ccc(O)cc1O)N1Cc2cc(O)cc(O)c2C1", "units label": "L", "Vd/F": 0.172}

---

assay: Pharmacokinetic studies in mice after IP dosing; assay type: in vivo; conditions: mouse; 20 mg/kg IP, female CD-1 mice, plasma

{"molecule": "O=S(=O)(c1ccc(O)cc1O)N1Cc2ccc(O)cc2C1 [PS8]", "Cmax [ng/mL]": 7600}

---

Biological target: PDK4 (Homo sapiens)
Sequence (Q16654 whole entry): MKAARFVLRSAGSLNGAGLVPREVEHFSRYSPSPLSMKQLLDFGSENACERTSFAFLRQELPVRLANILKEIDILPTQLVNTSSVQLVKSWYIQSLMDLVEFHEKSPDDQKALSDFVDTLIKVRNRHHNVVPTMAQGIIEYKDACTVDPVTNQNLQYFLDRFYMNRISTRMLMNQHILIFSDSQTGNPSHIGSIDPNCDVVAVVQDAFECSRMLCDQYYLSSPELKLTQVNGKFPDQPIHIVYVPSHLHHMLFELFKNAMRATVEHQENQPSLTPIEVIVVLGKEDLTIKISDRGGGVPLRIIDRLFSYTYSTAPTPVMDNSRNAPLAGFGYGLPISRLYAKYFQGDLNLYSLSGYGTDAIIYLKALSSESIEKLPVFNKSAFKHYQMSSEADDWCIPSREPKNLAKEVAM
Assay: Assay for inhibition of PDK activity, PDK4
Assay type: biochemical
Parameters: made in house
Details: Table 1; inhibitor 31.6 nM to 1 mM; read-out: IC50, μM for PDK4
Experimental: Recombinant human PDK2 was expressed and purified as a N terminal His6-tagged SUMO fusion protein with a tobacco-etch-virus protease (TEV) cleavage site in front of the N-terminal PDK2 sequence (26), and was used directly for the activity assay and binding affinity analyses. […] The purified protein was concentrated to 35-40 mg/ml and stored at −80° C. in small aliquots. Recombinant human PDK1, PDK3 and PDK4 were expressed and purified as described previously (26). […]
Strictly below 1 µM in IC50: MET. Otherwise: NOT MET.

{"molecule": "O=C(c1ccc(O)cc1O)N1Cc2ccccc2C1", "class label": "NOT MET"}
{"molecule": "O=S(=O)(c1ccc(O)cc1O)N1Cc2cc(O)cc(O)c2C1", "class label": "MET"}
{"molecule": "O=S(=O)(c1ccc(O)cc1O)N1Cc2ccccc2C1", "class label": "NOT MET"}
{"molecule": "O=C(c1cc(Br)c(O)cc1O)N1Cc2ccccc2C1", "class label": "NOT MET"}
{"molecule": "O=S(=O)(c1ccc(O)cc1O)N1Cc2ccc(O)cc2C1", "class label": "NOT MET"}
